Hello, the source for this data is patent US20260373266A1, in case you need it.

# Lookup of reported pKd keyed by entry
# experimentalTarget: DCAF1 WD40 domain (residues 1077-1390) (Homo sapiens)
# Construct: DCAF1 WD40 domain (residues 1077-1390)
# assayNotes: DCAF1 binding assay by SPR (Biacore 8K+), DCAF1-3 KD
# runConditions: 25 °C, read-out: DCAF1-3 SPR (KD)
pKd: −log10 of the molar value.

Below: 5 compounds and their reported pKd.
{"compound": "Cc1c(F)ccc(F)c1-c1c(C(=O)N[C@@H](CC(N)=O)c2cccc(Cl)c2)cn(C)c1C(=O)c1ccccc1 [I-886]", "pKd": "> 5.00"}
{"compound": "NC(=O)C[C@](CC(=O)O)(NC(=O)c1c[nH]nc1-c1ccccc1F)c1cccc(Cl)c1 [I-295]", "pKd": "< 3.70"}
{"compound": "C=CC(=O)Nc1ccc2[nH]nc(C(=O)N[C@@H](CC(N)=O)c3cccc(Cl)c3)c2c1 [I-302]", "pKd": "< 3.70"}
{"compound": "Cc1sc2c(c1C)C(c1ccc(Cl)cc1)=N[C@@H](CC(=O)NCCCCCCCCCCCCCCCCCCCCC(=O)c1[nH]cc(C(=O)N[C@@H](CC(N)=O)c3cccc(Cl)c3)c1-c1ccccc1F)c1nnc(C)n1-2 [I-894]", "pKd": "< 3.70"}
{"compound": "COCCN1CCN(c2ccnc(N[C@@H]3CCCN(c4cccc(F)c4)C3)c2)CC1 [I-61]", "pKd": "4.00 to 5.00"}

// compound Cc1c(F)ccc(F)c1-c1[nH]ncc1C(=O)N[C@H](CC(N)=O)c1ccc(F)c(Cl)c1 [I-818] , assay DCAF1 WD40 domain (residues 1077-1390) (Homo sapiens), pKd value: > 5.00

// compound OCCCc1ccc(N2CCC[C@@H](Nc3cc(N4CCOCC4)ccn3)C2)cc1 [I-873] , assay DCAF1 WD40 domain (residues 1077-1390) (Homo sapiens), pKd value: < 3.70

====

# experimentalTarget: DCAF1 WD40 domain (residues 1077-1390) (Homo sapiens, UniProt Q9Y4B6)
# Construct: DCAF1 WD40 domain (residues 1077-1390)
# Sequence (Q9Y4B6 1077-1390): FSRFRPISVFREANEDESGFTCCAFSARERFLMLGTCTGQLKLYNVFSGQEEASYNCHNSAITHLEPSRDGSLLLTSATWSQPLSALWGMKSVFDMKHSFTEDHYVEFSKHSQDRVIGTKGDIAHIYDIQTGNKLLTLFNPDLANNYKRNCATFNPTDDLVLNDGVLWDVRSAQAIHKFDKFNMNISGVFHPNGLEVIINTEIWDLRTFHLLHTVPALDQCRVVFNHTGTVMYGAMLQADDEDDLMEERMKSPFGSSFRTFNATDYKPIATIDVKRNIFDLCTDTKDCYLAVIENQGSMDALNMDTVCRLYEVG
# assayNotes: DCAF1 binding assay by SPR (Biacore 8K+), DCAF1-3 KD
# runConditions: 25 °C, read-out: DCAF1-3 SPR (KD)
pKd: −log10 of the molar value.
# Lookup of reported pKd keyed by entry

Data point: "CN1CCC(n2cc(N3CCC[C@@H](Nc4cc(N5CCOCC5)ccn4)C3)cn2)CC1" ; pKd = < 3.70

Data point: "C[n+]1ccc(N2CCOCC2)cc1N[C@@H]1C[C@@H](O)CN(c2cccc(F)c2)C1" ; pKd = < 3.70

Data point: "NC(=O)C[C@H](NC(=O)c1c[nH]c(Nc2ccccc2)c1-c1c(F)cccc1F)c1cccc(Cl)c1" ; pKd = > 5.00

====

# Lookup of reported pKd keyed by entry
# experimentalTarget: DCAF1 WD40 domain (residues 1077-1390) (Homo sapiens, UniProt Q9Y4B6)
# Construct: DCAF1 WD40 domain (residues 1077-1390)
# assayNotes: DCAF1 binding assay by SPR (Biacore 8K+), DCAF1-3 KD
# runConditions: 25 °C, read-out: DCAF1-3 SPR (KD)
pKd: −log10 of the molar value.

Below: 2 compounds and their reported pKd.
{"compound": "COc1cccc(C(=O)c2[nH]cc(C(=O)N[C@@H](CC(N)=O)c3cccc(Cl)c3)c2-c2c(F)ccc(F)c2C)c1", "recordedResult": "> 5.00"}
{"compound": "NCCOCCOCCOCCOCCCc1ccc(C(=O)c2[nH]cc(C(=O)N[C@@H](CC(N)=O)c3cccc(Cl)c3)c2-c2c(F)ccc(F)c2F)cc1", "recordedResult": "> 5.00"}

Okay, next one:
Data point: "COCCOCC[C@@H]1CN(c2cc(N3CCCCC3)ccn2)[C@H]2CCCN(c3cccc(F)c3)[C@@H]12" ; pKd = > 5.00

====

# experimentalTarget: DCAF1 WD40 domain (residues 1077-1390) (Homo sapiens, UniProt Q9Y4B6)
# Construct: DCAF1 WD40 domain (residues 1077-1390)
# assayNotes: DCAF1 binding assay by SPR (Biacore 8K+), DCAF1-3 KD
# runConditions: 25 °C, read-out: DCAF1-3 SPR (KD)
pKd: −log10 of the molar value.
measuredEndpoint: pKd

Below: 6 compounds and their reported pKd.
{"compound": "Cc1c(F)ccc(F)c1-c1c(C(=O)N[C@@H](CC(=O)N2CC[C@@H](O)C2)c2cccc(Cl)c2)cn(C)c1C#N [I-1005]", "pKd": "> 5.00"}
{"compound": "NC(=O)C[C@H](NC(=O)c1c[nH]nc1-c1cccc2ncnn12)c1cccc(Cl)c1 [I-237]", "pKd": "< 3.70"}
{"compound": "c1ccc(-c2nc3cccc(N4CCC[C@@H](Nc5cc(N6CCOCC6)ccn5)C4)c3o2)cc1 [I-685]", "pKd": "< 3.70"}
{"compound": "Cc1c(F)ccc(F)c1-c1[nH]ncc1C(=O)N[C@H](c1cccc(Cl)c1)[C@H]1CCOC1 [I-968]", "pKd": "4.00 to 5.00"}
{"compound": "O[C@@]1(c2ccccc2)CCC[C@@H](Nc2cc(N3CCCCC3)ccn2)C1 [I-929]", "pKd": "4.00 to 5.00"}
{"compound": "OCCC[C@@H]1C[C@H]2[C@@H](CCCN2c2cccc(F)c2)N1c1cc(N2CCCCC2)ccn1 [I-831]", "pKd": "4.00 to 5.00"}

Data point: O=CNc1ccc(N2CCC[C@H]3[C@@H]2CCN3c2cc(N3CCCCC3)ccn2)cc1F [I-762] ; pKd = < 3.70

====

# experimentalTarget: DCAF1 WD40 domain (residues 1077-1390) (Homo sapiens, UniProt Q9Y4B6)
# Construct: DCAF1 WD40 domain (residues 1077-1390)
# assayNotes: DCAF1 binding assay by SPR (Biacore 8K+), DCAF1-3 KD
# runConditions: 25 °C, read-out: DCAF1-3 SPR (KD)
pKd: −log10 of the molar value.
measuredEndpoint: pKd

Below: 3 compounds and their reported pKd.
{"compound": "Oc1ccccc1N1CCC[C@@H](Nc2cc(N3CCOCC3)ncn2)C1 [I-16]", "pKd": "< 3.70"}
{"compound": "NC(=O)C[C@H](NC(=O)c1cn[nH]c1-c1cccc(O)c1)c1cccc(Cl)c1 [I-332]", "pKd": "4.00 to 5.00"}
{"compound": "OCCC[C@H]1C[C@H]2[C@@H](CCCN2c2cccc(F)c2)N1c1cc(N2CCCCC2)ccn1 [I-834]", "pKd": "4.00 to 5.00"}

Data point: c1ccc(CN2CCc3ncnc(N4CCC[C@@H](Nc5cc(N6CCOCC6)ccn5)C4)c3C2)cc1 [I-870] ; pKd = 4.00 to 5.00

Data point: c1cc(N2CCOCC2)cc(N[C@@H]2CCCN(c3ncnc4c3ncn4[C@@H]3CCCCO3)C2)n1 [I-684] ; pKd = 4.00 to 5.00

Data point: c1cc2cc(N3CCC[C@@H](Nc4cc(N5CCOCC5)ncn4)C3)ccc2cn1 [I-401] ; pKd = < 3.70

Data point: NC(=O)C[C@](CO)(NC(=O)c1c[nH]nc1-c1ccccc1F)c1cccc(Cl)c1 [I-253] ; pKd = < 3.70

Data point: NC(=O)C[C@H](NC(=O)c1cn[nH]c1C1CCOCC1)c1cccc(Cl)c1 [I-344] ; pKd = > 5.00

Data point: Cc1ccccc1C(=O)c1[nH]cc(C(=O)N[C@@H](CC(N)=O)c2cccc(Cl)c2)c1-c1c(C)cccc1F [I-626] ; pKd = > 5.00

====

# Lookup of reported Kd keyed by entry
# experimentalTarget: DCAF1 WD40 domain (residues 1077-1390) (Homo sapiens)
# Construct: DCAF1 WD40 domain (residues 1077-1390)
# assayNotes: DCAF1 binding assay by SPR (Biacore 8K+), DCAF1-3 KD
# runConditions: 25 °C, read-out: DCAF1-3 SPR (KD)

Below: 9 compounds and their reported Kd.
{"compound": "NC(=O)N1CC2(CCCN(c3cccc(F)c3)C2)Nc2cc(N3CCCCC3)ncc21 (stereo not shown)", "experimentalTarget": "DCAF1 WD40 domain (residues 1077-1390) (Homo sapiens)", "Kd": "100 to 200 µM"}
{"compound": "COCCn1ncc(C(=O)N[C@@H](CC(N)=O)c2cccc(Cl)c2)c1-c1ccccc1F", "experimentalTarget": "DCAF1 WD40 domain (residues 1077-1390) (Homo sapiens)", "Kd": "> 200 µM"}
{"compound": "N#Cc1nccc(CN2CCC[C@@H](Nc3cc(N4CCOCC4)ccn3)C2)n1", "experimentalTarget": "DCAF1 WD40 domain (residues 1077-1390) (Homo sapiens)", "Kd": "> 200 µM"}
{"compound": "COc1ccc(-c2ccncc2)cc1N1CCC[C@@H](Nc2cc(N3CCOCC3)ccn2)C1", "experimentalTarget": "DCAF1 WD40 domain (residues 1077-1390) (Homo sapiens)", "Kd": "10 to 100 µM"}
{"compound": "Nc1cnc(N2CCCCC2)nc1N[C@@H]1CCCN(c2cccc(F)c2)C1", "experimentalTarget": "DCAF1 WD40 domain (residues 1077-1390) (Homo sapiens)", "Kd": "10 to 100 µM"}
{"compound": "Nc1cc(N2CCOCC2)cc(N[C@@H]2CCCN(c3cccc(F)c3)C2)n1", "experimentalTarget": "DCAF1 WD40 domain (residues 1077-1390) (Homo sapiens)", "Kd": "> 200 µM"}
{"compound": "Fc1cccc(N2CCC[C@@H](Nc3cc([C@@H]4CCCNC4)ccn3)C2)c1", "experimentalTarget": "DCAF1 WD40 domain (residues 1077-1390) (Homo sapiens)", "Kd": "> 200 µM"}
{"compound": "Cc1cccc(F)c1-c1c(C(=O)N[C@@H](CC(N)=O)c2cccc(Cl)c2)c[nH]c1C(=O)c1cccc(N2CCCCC2)c1", "experimentalTarget": "DCAF1 WD40 domain (residues 1077-1390) (Homo sapiens)", "Kd": "< 10 µM"}
{"compound": "C[C@@H]1[C@H](O)CCCN1c1ccnc(N2CC[C@@H]3[C@H]2CCCN3c2cccc(F)c2)c1", "experimentalTarget": "DCAF1 WD40 domain (residues 1077-1390) (Homo sapiens)", "Kd": "< 10 µM"}

Okay, next one:
Data point: "Fc1cccc(N2C[C@H](F)C[C@@H](Nc3cc(N4CCOCC4)ncn3)C2)c1" ; Kd = > 200 µM
